- Tested system: T1, human GIP receptor (human, UniProt P48546 22-466)
- T1 sequence (looked up): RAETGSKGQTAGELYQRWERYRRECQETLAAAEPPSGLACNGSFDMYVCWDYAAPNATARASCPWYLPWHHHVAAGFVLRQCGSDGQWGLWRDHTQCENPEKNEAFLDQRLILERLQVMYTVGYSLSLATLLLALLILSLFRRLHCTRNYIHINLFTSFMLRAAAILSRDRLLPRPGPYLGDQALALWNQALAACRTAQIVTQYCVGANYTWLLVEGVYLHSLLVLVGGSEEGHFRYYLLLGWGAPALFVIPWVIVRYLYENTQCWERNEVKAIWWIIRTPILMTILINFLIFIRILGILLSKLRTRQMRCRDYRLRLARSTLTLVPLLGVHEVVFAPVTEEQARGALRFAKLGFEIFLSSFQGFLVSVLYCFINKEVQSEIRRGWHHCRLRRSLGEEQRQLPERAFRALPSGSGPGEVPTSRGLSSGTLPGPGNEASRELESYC
- Procedure details: cell-based or functional assay
Numbered stars: 1 amine (or outer) side, 2 acyl side, 3 side chain; on linkers, the order of the positions; unused ones are H or OH. Square brackets hold non-standard residues; d marks the D form. Side chains are listed from the residue outwards. Ends that are not written are not given here. * marks the point of attachment. γGlu = O=C(O)[C@H](CCC(=O)[*:2])N[*:1]; Stearoyl = CCCCCCCCCCCCCCCCCC(=O)*; Palmitoyl = CCCCCCCCCCCCCCCC(=O)*; AEEA = NCCOCCOCC(=O)O; Aib = CC(C)(N)C(=O)O
Label True when EC50 hGIP-R (cAMP formation) is strictly below 0.05 nM; at or above that, label False.

Sample answers from the record:
- Binder: "H[Aib]HGTFTSDLSKQK([γGlu-Palmitoyl])EEEAVRLFIEWLKAGGPSSGAPPPS-NH2 [SEQ ID NO: 12]"
  Assigned class: "True"
- Binder: "H-H[Aib]HGTFTSDLSKQK([AEEA-AEEA-AEEA-Stearoyl])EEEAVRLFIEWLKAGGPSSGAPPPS-NH2 [SEQ ID NO: 29]"
  Assigned class: "True"

## Task Say whether its EC50 hGIP-R (cAMP formation) is strictly beneath 0.05 nM. Entry: H[Aib]HGTFTSDLSKQK([γGlu-γGlu-Palmitoyl])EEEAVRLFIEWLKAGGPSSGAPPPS-NH2 [SEQ ID NO: 11]
## Result True

## Task Say whether its EC50 hGIP-R (cAMP formation) is strictly beneath 0.05 nM. Entry: HSHGTFTSDLSKQK([γGlu-Stearoyl])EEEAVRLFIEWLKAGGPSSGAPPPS-NH2 [SEQ ID NO: 10]
## Result False

## Task Say whether its EC50 hGIP-R (cAMP formation) is strictly beneath 0.05 nM. Entry: H[dS]HGTFTSDLSKQK([γGlu-Palmitoyl])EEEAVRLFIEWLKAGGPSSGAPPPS-NH2 [SEQ ID NO: 14]
## Result False

## Task Say whether its EC50 hGIP-R (cAMP formation) is strictly beneath 0.05 nM. Entry: H[Aib]HGTFTSDLSKQK([γGlu-Stearoyl])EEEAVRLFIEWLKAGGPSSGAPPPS-NH2 [SEQ ID NO: 7]
## Result True
